TARGET_ENTITY: human amylin receptor (hAmyR3) (Homo sapiens, UniProt O60896+P30988)
Construct: host or cells: BHK cells (Hollex-1 line: human calcitonin receptor (a) + CRE-Luc), further transfected with human RAMP3
Sequence (P30988 25-474): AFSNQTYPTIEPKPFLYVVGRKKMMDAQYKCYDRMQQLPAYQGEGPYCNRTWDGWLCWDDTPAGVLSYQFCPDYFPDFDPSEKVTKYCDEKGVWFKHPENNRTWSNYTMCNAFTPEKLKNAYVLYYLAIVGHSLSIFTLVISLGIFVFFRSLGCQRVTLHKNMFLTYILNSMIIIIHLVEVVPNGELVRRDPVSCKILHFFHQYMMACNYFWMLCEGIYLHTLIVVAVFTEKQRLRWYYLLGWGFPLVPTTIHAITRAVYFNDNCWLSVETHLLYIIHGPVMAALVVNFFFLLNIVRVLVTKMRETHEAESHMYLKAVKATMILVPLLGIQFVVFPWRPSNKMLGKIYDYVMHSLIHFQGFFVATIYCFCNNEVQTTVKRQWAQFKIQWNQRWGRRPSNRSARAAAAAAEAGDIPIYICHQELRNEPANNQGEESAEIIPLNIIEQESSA
Sequence (O60896 24-148): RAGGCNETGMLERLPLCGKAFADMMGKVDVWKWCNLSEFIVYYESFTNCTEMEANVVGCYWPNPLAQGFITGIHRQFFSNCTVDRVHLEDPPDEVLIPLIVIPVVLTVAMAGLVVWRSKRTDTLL
ASSAY_TEXT: Human amylin receptor in vitro potency assay (CRE-luciferase reporter, BHK cells);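 also: BHK cells expressing human calcitonin receptor plus RAMP3 (amylin-3 receptor) with a CRE-luciferase reporter, agonist activity read as luminescence from cAMP-driven transcription, 7-point serial dilutions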
Format: cell-based
MEASUREMENT_PARAMETERS: Table 4a; BHK hAmyR3/CRE-Luc cells, 3 hours; read-out: Human AmyR3 potency [EC50 (pM)]
Starred links: 1 amine or outer side, 2 acyl side, 3 side chain; linkers in the order of their positions; H or OH if unused. Non-standard residues stand in square brackets, D forms with d. Groups on a side chain read outwards from the residue. *: point of attachment. C20 diacid = O=C(O)CCCCCCCCCCCCCCCCCCC(=O)*; C18 diacid = O=C(O)CCCCCCCCCCCCCCCCC(=O)*; γGlu = O=C(O)[C@H](CCC(=O)[*:2])N[*:1]; εLys = N[C@@H](CCCCN[*:1])C(=O)[*:2]; Trx = NC[C@H]1CC[C@H](C(=O)O)CC1; AEEA = NCCOCCOCC(=O)O; Aib = CC(C)(N)C(=O)O
READOUT_LABEL: EC50 (pM)

INSERT INTO results (substance, readout_label, unit_of_measurement, result_value) VALUES
  ('H-H[Aib]EGTFTSDVSSYLEGQAAK([AEEA-AEEA-γGlu-C18 diacid])EFIAWLVRGRGGGGGGGGGGGGGGGGGEASELSTAALGRLSAELHELATLPRTETGSGSP-NH2 [Compound 0093]', 'EC50', 'pM', 8.6),
  ('HWEGTFTSDVSSYLEEK([AEEA-AEEA-γGlu-C18 diacid])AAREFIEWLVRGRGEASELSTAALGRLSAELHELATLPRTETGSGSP-NH2 [Compound 0271]', 'EC50', 'pM', 15.2),
  ('H-H[Aib]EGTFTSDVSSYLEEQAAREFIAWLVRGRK([εLys-εLys-γGlu-C20 diacid])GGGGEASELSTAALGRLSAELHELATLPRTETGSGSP-NH2 [Compound 0657]', 'EC50', 'pM', 10.4),
  ('H-H[Aib]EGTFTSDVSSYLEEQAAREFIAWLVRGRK([AEEA-AEEA-γGlu-C18 diacid])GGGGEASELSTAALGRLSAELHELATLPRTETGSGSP-NH2 [Compound 0111]', 'EC50', 'pM', 11.5),
  ('H-H[Aib]EGTFTSDVSSYLEEQAAREFIEWLVRGRK([AEEA-AEEA-γGlu-Trx-C20 diacid])EAEAEASELSTAALGRLSAELHELATLPRTETGSGSP-NH2 [Compound 0179]', 'EC50', 'pM', 35.9);
